Field: FGFR4 Kinase % Inhibition. Provide a value for each of the binders that follow.
# assay.target: FGFR4 Kinase (UniProt P22455 460-802, limits assumed)
# Sequence (P22455 460-802 limits assumed): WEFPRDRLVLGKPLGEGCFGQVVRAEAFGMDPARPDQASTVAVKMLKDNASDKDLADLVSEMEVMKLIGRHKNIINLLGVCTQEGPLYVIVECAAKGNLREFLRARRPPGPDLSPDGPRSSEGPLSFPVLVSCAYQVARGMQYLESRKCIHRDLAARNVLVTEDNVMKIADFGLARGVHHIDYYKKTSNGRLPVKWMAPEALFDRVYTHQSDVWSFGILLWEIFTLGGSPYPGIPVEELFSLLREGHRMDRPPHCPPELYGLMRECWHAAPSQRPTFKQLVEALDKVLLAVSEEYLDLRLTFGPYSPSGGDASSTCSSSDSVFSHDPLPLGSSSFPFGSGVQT
# method.description: cell-based or functional assay
*: point of attachment. Palmitoyl = CCCCCCCCCCCCCCCC(=O)*
Reply with just the number (in %).

**Query** Which FGFR4 Kinase % Inhibition reading was recorded for the binder Palmitoyl-KFNLPLGNAKKP-NH2 (SMILES CCCCCCCCCCCCCCCC(=O)N[C@@H](CCCCN)C(=O)N[C@@H](Cc1ccccc1)C(=O)N[C@@H](CC(N)=O)C(=O)N[C@@H](CC(C)C)C(=O)N1CCC[C@H]1C(=O)N[C@@H](CC(C)C)C(=O)NCC(=O)N[C@@H](CC(N)=O)C(=O)N[C@@H](C)C(=O)N[C@@H](CCCCN)C(=O)N[C@@H](CCCCN)C(=O)N1CCC[C@H]1C(N)=O) [Peptide 9: Palm-Lys-Phe-Asn-Leu-Pro-Leu-Gly-Asn-Ala-Lys-Lys-Pro-NH2] ?
**Result** 92.5

**Query** Returns the measured FGFR4 Kinase % Inhibition for the input binder. Input: Palmitoyl-KFNLPLANYKKP-NH2 (SMILES CCCCCCCCCCCCCCCC(=O)N[C@@H](CCCCN)C(=O)N[C@@H](Cc1ccccc1)C(=O)N[C@@H](CC(N)=O)C(=O)N[C@@H](CC(C)C)C(=O)N1CCC[C@H]1C(=O)N[C@@H](CC(C)C)C(=O)N[C@@H](C)C(=O)N[C@@H](CC(N)=O)C(=O)N[C@@H](Cc1ccc(O)cc1)C(=O)N[C@@H](CCCCN)C(=O)N[C@@H](CCCCN)C(=O)N1CCC[C@H]1C(N)=O) [Peptide 7: Palm-Lys-Phe-Asn-Leu-Pro-Leu-Ala-Asn-Tyr-Lys-Lys-Pro-NH2]
**Result** 67.9

**Query** Consider the binder Palmitoyl-KFNLPLGNYKAP-NH2 (SMILES CCCCCCCCCCCCCCCC(=O)N[C@@H](CCCCN)C(=O)N[C@@H](Cc1ccccc1)C(=O)N[C@@H](CC(N)=O)C(=O)N[C@@H](CC(C)C)C(=O)N1CCC[C@H]1C(=O)N[C@@H](CC(C)C)C(=O)NCC(=O)N[C@@H](CC(N)=O)C(=O)N[C@@H](Cc1ccc(O)cc1)C(=O)N[C@@H](CCCCN)C(=O)N[C@@H](C)C(=O)N1CCC[C@H]1C(N)=O) [Peptide 11: Palm-Lys-Phe-Asn-Leu-Pro-Leu-Gly-Asn-Tyr-Lys-Ala-Pro-NH2] and give its measured FGFR4 Kinase % Inhibition.
**Result** 0
